z-score values for the compounds below.
protocol notes: osmotic lysis modulators in infected erythrocytes, primary screen, PSAC antagonist project, cell-based, P. falciparum Indochina, OD700, 3 h (AID 1156)
test parameters: higher = more signal, called active from +8 up or from −8 down
Active and inactive are the calls of the source.

# count of solved cases: 2
compound: O=C1c2ccccc2[C@@]2(Cc3ccccc3N(CC(F)(F)F)C2=O)[C@H](c2ccc(CO)cc2)N1C1CCCCC1
z-score: 0.0811 (inactive)

compound: O=C1C2C=CC(C(O)C#Cc3ccccc3)N(Nc3ccccc3)C2C(=O)N1c1ccccc1 (configuration not stated)
z-score: 0.537 (inactive)

Pending compound:
Query block: I have this compound here, "COCCOC(=O)N1C(=O)[C@@]2(c3cc(C#CC4=CCCCC4)ccc31)[C@H](C(=O)NC[C@H](O)c1ccccc1)[C@H]1C(=O)O[C@H](c3ccccc3)[C@H](c3ccccc3)N1[C@@H]2c1ccccc1OCCO" , and I need its recorded z-score.
Result block: -0.032 (inactive)

---

protocol notes: PSAC antagonists in infected red cells, primary screen, cell-based, P. falciparum Indochina, OD700, 18 h (AID 1157)
test parameters: P. falciparum Indochina infected erythrocytes, osmotic lysis OD700, 18 h, called active from +8 up or from −8 down
Activity calls are given as the source filed them.
// classify into active, inactive

Below are worked cases with known answers.
compound: O=C1O[C@@H](c2ccccc2)[C@@H](c2ccccc2)N2[C@@H](c3ccc(O)cc3)[C@]3(C(=O)Nc4ccc(C#CC5(O)CCCCCC5)cc43)[C@@H](C(=O)Nc3nc4ccccc4s3)[C@H]12
classification: inactive
--
compound: COc1ccc([Si](C)(C)[C@H]2[C@H](CCO)O[C@@]3(C(=O)N(Cc4ccccc4)c4ccc(N5C(=O)c6cccc7cccc5c67)cc43)[C@@H]2C)cc1
classification: inactive
--
compound: CC(C)(C)OC(=O)CC[C@]1(C(=O)NCCN2CCOCC2)N=C(c2ccc(OCCCO)cc2)O[C@H]1c1ccccc1CN=[N+]=[N-]
classification: inactive
--
compound: NC(=O)NCC#Cc1ccc2c(c1)[C@]1(C(=O)N2)[C@H](c2ccccc2OCCO)N2[C@H](c3ccccc3)[C@H](c3ccccc3)OC(=O)[C@H]2[C@@H]1C(=O)N1CCN(c2ncccn2)CC1
classification: inactive
--
compound: C=C(COC)/C(=C/C[C@H](OC(C)=O)c1ccc(OCCO)cc1)c1cnc2ccccc2c1
classification: inactive

Query block: Please indicate how the test categorized "CC(C)(C)OC(=O)CC[C@]1(C(=O)N2CCCCC2)N=C(c2ccc(OCCCO)cc2)O[C@H]1c1ccccc1" .
Result block: inactive

Query block: Please indicate how the test categorized "CO[C@@H]1COC(=O)CC=C[C@@H](C)[C@H](OC)COC(=O)CC=C[C@H]1C" .
Result block: inactive

Query block: Please indicate how the test categorized "C=CCc1cccc([C@@H]2[C@@H](C)CC[C@H]3C(=O)N4[C@H](c5cccc(CC=C)c5)[C@@H](C)CC[C@H]4C(=O)N23)c1" .
Result block: inactive

Query block: Please indicate how the test categorized "C=C(CCCC)/C(=C/C[C@@H](OC(=O)c1ccncc1)c1ccc(CO)o1)c1cnc2ccccc2c1" .
Result block: inactive

Query block: Please indicate how the test categorized Cc1cc(C)c(C(O)C2C=CC3C(=O)N(C)C(=O)C3N2N2CCCCC2)c(C)c1 (stereo unspecified) .
Result block: inactive

Query block: Please indicate how the test categorized CC(C)N1CC=CC23O[C@@H]4/C=C\CCCOC(=O)C4[C@H]2C(=O)N(CCO)[C@@H]3C1=O (stereo partly specified) .
Result block: inactive

Query block: Please indicate how the test categorized "C#C[C@H](O[Si](C#Cc1ccccc1)(C(C)C)C(C)C)c1ccccc1" .
Result block: inactive

Query block: Please indicate how the test categorized "COc1cccc([C@H]2N[C@H](C(=O)O)CC[C@@H]2C)c1" .
Result block: inactive

Query block: Please indicate how the test categorized "O=C(NCc1ccccc1)[C@@]1(CCS(=O)(=O)c2ccccc2)COC(c2ccc(OCCCO)cc2)=N1" .
Result block: inactive

Query block: Please indicate how the test categorized "C=CC[C@]1(C(=O)O)N=C(c2ccc(OCCCO)cc2)O[C@H]1c1ccccc1N=[N+]=[N-]" .
Result block: active

Query block: Please indicate how the test categorized C=CCN(C(=O)C1N(c2ccc(CCO)cc2)C(=O)C2C(C(=O)O)C3C=CC21O3)C(C)(C)C (stereo unspecified) .
Result block: inactive

Query block: Please indicate how the test categorized "CCOC(=O)C1=CC[C@@H](c2ccccc2)N(S(=O)(=O)c2ccc(C)cc2)[C@H]1C" .
Result block: inactive

Query block: Please indicate how the test categorized "CC(=O)NCCCC[C@@H]1NC(=O)[C@H]2C[C@@H](C(=O)NCCCCCCN(C)C)[C@@H](c3cccc(OCCO)c3)N2C1=O" .
Result block: inactive

Query block: Please indicate how the test categorized C#CCNC(/C=C/c1ccccc1)CO (stereo unspecified) .
Result block: inactive

Query block: Please indicate how the test categorized "CC(=O)NCCCC[C@@H]1NC(=O)[C@H]2C[C@@H](C(=O)NCCCCCCN(C)C)[C@@H](c3ccc(O)cc3)N2C1=O" .
Result block: inactive

Query block: Please indicate how the test categorized "COC(=O)C[C@H]1O[C@]2(C(=O)N(Cc3ccccc3)c3ccc(I)cc32)[C@@H](C)[C@@H]1[Si](C)(C)c1ccc(OC)cc1" .
Result block: inactive

Query block: Please indicate how the test categorized "COC(=O)[C@@]1(Cc2ccc(OC)cc2)[C@H]2c3cc(C(=O)N(C)C)n(CCc4ccc(OC)c(Br)c4)c3C[C@H]2CN1C(=O)c1ccccc1" .
Result block: inactive

Query block: Please indicate how the test categorized "CCN1C(C)=C(C(=O)OC)[C@@H](c2ccccc2)N2C(=O)[C@](O)(C(=O)OC)[C@@H](c3ccccc3)C(C(C)=O)=C12" .
Result block: inactive

---

protocol notes: COS7 lysate on small-molecule microarray, probe aHis, 635 nm (AID 1123);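 also: z-score combines 667nm fluorescence intensity with signal-to-noise per printed compound spot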
test parameters: COS7 cell lysate, fluorescence, higher = more signal
assay metric: composite z-score
Lab note: record just the number, no unit beside it.

# count of solved cases: 3
structure string: CCN1C(C)=C(C(=O)OC)[C@@H](c2ccccc2)N2C(=O)[C@@]3(C(=O)OC)O[C@@]12[C@@H]1C(=O)CCC[C@@H]13
composite z-score: -0.503
--
structure string: COc1cc(CO)cc(I)c1O[C@H]1C=C(C(=O)NCCO)C[C@@H](N(CC2CCCCC2)C(=O)c2cc3ccccc3oc2=O)[C@@H]1O
composite z-score: 0.14
--
structure string: C[C@]1(C(=O)NCc2ccccc2)c2ccccc2C(=O)N(Cc2cc(C(F)(F)F)cc(C(F)(F)F)c2)[C@H]1c1ccc(CO)cc1
composite z-score: 0.9

Query block: I have this compound here, "CCCCO[C@H]1C[C@H]2C(Br)=C[C@@]1(CO)C(=O)[C@]21CO1" , and I need its recorded composite z-score.
Result block: 0.124

Query block: I have this compound here, "C=C(CCCC)/C(=C/C[C@@H](OC(=O)c1ccncc1)c1cccc(OCCO)c1)c1cc(C(=O)OC)ccc1OC" , and I need its recorded composite z-score.
Result block: 2.84

Query block: I have this compound here, "Cc1ccc(N2C(=O)c3ccccc3[C@](C)(C(=O)O)[C@@H]2c2ccc(CO)cc2)nc1" , and I need its recorded composite z-score.
Result block: -0.471

Query block: I have this compound here, "CO[C@H]1O[C@H](CO)[C@@H](OC(=O)Nc2ccccc2)[C@H](OC(=O)Nc2ccc3c(c2)OCO3)[C@@H]1OC(=O)Nc1ccc2c(c1)OCO2" , and I need its recorded composite z-score.
Result block: 2.17

Query block: I have this compound here, "C=CC[C@]1(C(=O)O)N=C(c2ccc(OCCCO)cc2)O[C@H]1c1ccccc1" , and I need its recorded composite z-score.
Result block: 2.37

Query block: I have this compound here, "CC(=O)NCCCC[C@@H]1NC(=O)[C@@H]2C[C@H](C(=O)NCc3ccc(F)cc3)[C@H](c3cccc(OCCO)c3)N2C1=O" , and I need its recorded composite z-score.
Result block: 1.07

Query block: I have this compound here, "CC(C)(C)OC(=O)CC[C@]1(C(=O)N2CCCCC2)N=C(c2ccc(OCCCO)cc2)O[C@H]1c1ccccc1" , and I need its recorded composite z-score.
Result block: 2.94

Query block: I have this compound here, "C=CCNC(=O)[C@H]1[C@@H]2C(=O)O[C@@H](c3ccccc3)[C@@H](c3ccccc3)N2[C@@H](c2ccc(O)cc2)[C@]12C(=O)Nc1ccc(C#CCNC(N)=O)cc12" , and I need its recorded composite z-score.
Result block: 0.789

Query block: I have this compound here, "CO[C@H]1COC(=O)CC=C[C@H](C)[C@@H](OC)COC(=O)[C@H](Cc2ccccc2)NC(=O)CC=C[C@@H]1C" , and I need its recorded composite z-score.
Result block: -0.566

Query block: I have this compound here, "O=C(NCc1ccccc1)[C@@]1(Cc2ccccc2)COC(c2ccc(OCCCO)cc2)=N1" , and I need its recorded composite z-score.
Result block: 1.71

Query block: I have this compound here, "CN(C)CCCC[C@@H]1NC(=O)[C@@H]2C[C@H](C(=O)NCCCCCNC(=O)CS)[C@H](c3ccc(O)cc3)N2C1=O" , and I need its recorded composite z-score.
Result block: 1.18

Query block: I have this compound here, "C=C(COC)C(=O)CC[C@H](OC(=O)c1ccccc1-c1ccccc1C(=O)O)c1cccc(OCCO)c1" , and I need its recorded composite z-score.
Result block: 4.78
